# Test system: S. cerevisiae NKY1551 his4x/his4B, sporulating;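 note: active if sensitivity score above 5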
# ASSAY NOTES: HIS4 meiotic recombination assay sensitivity score (z-score vs DMSO controls); higher = stronger inhibition of sporulation/recombination, active = hit call of the paper
Structures can show the parent of a compound that is named as a salt.
Kindly supply the reported HIS4 meiotic recombination assay sensitivity score values for the records listed here.
Give bare numbers.

Example entries and their recorded answers appear below.
| COMPOUND | DATA VALUE |
| --- | --- |
| C/C=C1\[C@H]2C=C(C)C[C@]1(N)c1ccc(=O)[nH]c1C2 [Huperzine a] (stock concentration (mM, diluted 1:100): 10) | -0.7 |
| Cc1cn([C@H]2C=C[C@@H](CO)O2)c(=O)[nH]c1=O [Stavudine] (stock concentration (mM, diluted 1:100): 10) | -1.75 |
| COc1ccc2c(c1)c(CC(=O)O)c(C)n2C(=O)c1ccc(Cl)cc1 [Indomethacin] (stock concentration (mM, diluted 1:100): 10.5) | 0.4 |

For every item in the list below, what is its measured HIS4 meiotic recombination assay sensitivity score?
1. CC(C)[C@H](N)C(=O)OCCOCn1cnc2c(=O)nc(N)[nH]c21 [Valaciclovir hydrochloride] (stock concentration (mM, diluted 1:100): 9)
2. COc1nc(C)nc(Cl)c1NC1=NCCN1 [Moxonidine hydrochloride] (stock concentration (mM, diluted 1:100): 9.2)
3. CC(C)(C)NC(=O)[C@@H]1CN(Cc2cccnc2)CCN1C[C@@H](O)C[C@@H](Cc1ccccc1)C(=O)N[C@H]1c2ccccc2C[C@H]1O [Indinavir sulphate] (stock concentration (mM, diluted 1:100): 8.6)
4. C[C@H](N[C@@H](CCc1ccccc1)C(=O)O)C(=O)N1CCC[C@H]1C(=O)O [Enalaprilat] (stock concentration (mM, diluted 1:100): 10)
5. O=C1[C@H]2CCCC[C@H]2C(=O)N1CCCCN1CCN(c2nsc3ccccc23)CC1 [Perospirone hydrochloride] (stock concentration (mM, diluted 1:100): 9.4)
6. COC(=O)C1=C(C)NC(C)=C(C(=O)OCC(C)C)C1c1ccccc1[N+](=O)[O-] (stereo unspecified) [Nisoldipine] (stock concentration (mM, diluted 1:100): 10)

0.04
-0.58
-1.36
-0.11
-2.62
-2.61

For every item in the list below, what is its measured HIS4 meiotic recombination assay sensitivity score?
1. O=C1c2c(O)cc(O)cc2OC(c2ccc(O)c(O)c2)C1O (stereo unspecified) [Taxifolin] (stock concentration (mM, diluted 1:100): 10)
2. CC12CC3CC(C)(C1)CC(N)(C3)C2 [Memantine hydrochloride] (stock concentration (mM, diluted 1:100): 8.3)

-0.97
1.61

* * *

# System: S. cerevisiae BY4741 (wild-type), vegetative growth in YPD
# ASSAY NOTES: growth sensitivity score (doubling time z-score vs DMSO controls); higher = slower growth, strongly negative scores also mark growth inhibition (complete suppression), active = hit call of the paper
Kindly supply the reported growth sensitivity score values for the records listed here.
Answers are plain numbers.

| COMPOUND | growth sensitivity score |
| --- | --- |
| COc1ccccc1OCCNCC(O)COc1cccc2[nH]c3ccccc3c12 (stereo unspecified) [Carvedilol] (stock concentration (mM, diluted 1:100): 10) | 0.43 |
| CN(CCOc1ccc(NS(C)(=O)=O)cc1)CCc1ccc(NS(C)(=O)=O)cc1 [Dofetilide] (stock concentration (mM, diluted 1:100): 10) | -2.19 |
| CN1CCN(C2=Nc3cc(F)ccc3Cc3ccccc32)CC1 [Fluperlapine] (stock concentration (mM, diluted 1:100): 10) | 0.57 |
| CCN(CC)CC1CCCCN1CC(=O)N1c2ccccc2C(=O)Nc2cccnc21 (stereo unspecified) [Otenzepad] (stock concentration (mM, diluted 1:100): 10) | -2.57 |
| O=C(c1ccccc1)c1ccc2n1CCC2C(=O)O (stereo unspecified) [Toradol] (stock concentration (mM, diluted 1:100): 6.8) | 0.91 |

Turning now to a further record.
Using the record for CN(CCO)CC(O)Cn1cnc2c1c(=O)n(C)c(=O)n2C (stereo unspecified) [Xanthinol nicotinate] (stock concentration (mM, diluted 1:100): 10) , report its growth sensitivity score.
-1.14

* * *

# System: S. cerevisiae SK1 pCDA2-eGFP (USY613), sporulating;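 note: active if sensitivity score above 5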
# ASSAY NOTES: CDA2-GFP sporulation assay sensitivity score (z-score vs DMSO controls); higher = stronger inhibition of sporulation, active = hit call of the paper
Counter-ions that a name gives are not always drawn.
Quick rule for you: CDA2-GFP sporulation assay sensitivity score at 0.5 or higher means 1.0, lower means 0.0.

Before answering, review these 6 worked examples.
| COMPOUND | ANSWER LABEL |
| --- | --- |
| CC[C@H](C)C(=O)O[C@H]1C[C@H](O)C=C2C=C[C@H](C)[C@H](CC[C@@H](O)C[C@@H](O)CC(=O)O)[C@H]21 [Pravastatin sodium] (stock concentration (mM, diluted 1:100): 9.5) | 0.0 |
| COCCCC/C(=N\OCCN)c1ccc(C(F)(F)F)cc1 [Fluvoxamine] (stock concentration (mM, diluted 1:100): 7.7) | 0.0 |
| Cn1c(NCCN(CCO)CCCc2ccc([N+](=O)[O-])cc2)cc(=O)n(C)c1=O [Nifekalant hydrochloride] (stock concentration (mM, diluted 1:100): 9.2) | 0.0 |
| C=CC[C@@H]1/C=C(\C)C[C@H](C)C[C@H](OC)[C@H]2O[C@@](O)(C(=O)C(=O)N3CCCC[C@H]3C(=O)O[C@H](/C(C)=C/[C@@H]3CC[C@@H](O)[C@H](OC)C3)[C@H](C)[C@@H](O)CC1=O)[C@H](C)C[C@@H]2OC [Tacrolimus] (stock concentration (mM, diluted 1:100): 10) | 1.0 |
| Nc1nc(N)nc(-c2cc(Cl)ccc2Cl)n1 [Irsogladine maleate] (stock concentration (mM, diluted 1:100): 6.9) | 1.0 |
| CC=CC(=O)N(CC)c1ccccc1C [Crotamiton] (stock concentration (mM, diluted 1:100): 10.3) | 1.0 |

State whether the measured CDA2-GFP sporulation assay sensitivity score reaches 0.5, counting equality as reaching it, for COc1cc(C)c(Cc2cnc(N)nc2N)cc1OC [Ormetoprim] (stock concentration (mM, diluted 1:100): 10)
0.0

State whether the measured CDA2-GFP sporulation assay sensitivity score reaches 0.5, counting equality as reaching it, for COc1cccc2c1C(=O)c1c(O)c3c(c(O)c1C2=O)C[C@@](O)(C(=O)CO)C[C@@H]3O[C@H]1C[C@H](N)[C@@H](O)[C@H](C)O1 [Epirubicin hydrochloride] (stock concentration (mM, diluted 1:100): 9.4)
0.0

State whether the measured CDA2-GFP sporulation assay sensitivity score reaches 0.5, counting equality as reaching it, for CCOC(=O)[C@H](CCc1ccccc1)N[C@@H](C)C(=O)N1[C@H](C(=O)O)C[C@@H]2CCC[C@@H]21 [Ramipril] (stock concentration (mM, diluted 1:100): 10)
1.0

State whether the measured CDA2-GFP sporulation assay sensitivity score reaches 0.5, counting equality as reaching it, for CC(C(O)c1ccc(O)cc1)N1CCC(Cc2ccccc2)CC1 (stereo not given) [Ifenprodil] (stock concentration (mM, diluted 1:100): 9.2)
1.0

* * *

# Tested on: S. cerevisiae SK1 pCDA2-eGFP (USY613), sporulating;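 note: active if sensitivity score above 5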
# ASSAY NOTES: CDA2-GFP sporulation assay sensitivity score (z-score vs DMSO controls); higher = stronger inhibition of sporulation, active = hit call of the paper
Counter-ions that a name gives are not always drawn.
PROPERTY: CDA2-GFP sporulation assay sensitivity score
Give bare numbers.

| MOLECULE | DATA VALUE |
| --- | --- |
| CN1CCc2cc(Cl)c(O)cc2[C@@H](c2ccccc2)C1 (stock concentration (mM, diluted 1:100): 9.9) | 15.9 |

For every item in the list below, what is its measured CDA2-GFP sporulation assay sensitivity score?
1. CC(C)[C@H](N)C(=O)OCCOCn1cnc2c(=O)nc(N)[nH]c21 [Valaciclovir hydrochloride] (stock concentration (mM, diluted 1:100): 9)
2. O=C1[C@H]2CCCC[C@H]2C(=O)N1CCCCN1CCN(c2nsc3ccccc23)CC1 [Perospirone hydrochloride] (stock concentration (mM, diluted 1:100): 9.4)
3. CCN1CCC[C@H]1CNC(=O)c1c(O)c(Cl)cc(Cl)c1OC [Raclopride] (stock concentration (mM, diluted 1:100): 10)
4. CCCN[C@H]1CCc2nc(N)sc2C1 [Pramipexole] (stock concentration (mM, diluted 1:100): 10)
5. Clc1ccc2c(c1)CCc1cccnc1C2=C1CCNCC1 [Desloratadine] (stock concentration (mM, diluted 1:100): 10)
6. CCOC(=O)C1=C(C)NC(C)=C(C(=O)OCC)C1c1ccccc1/C=C/C(=O)OC(C)(C)C [Lacidipine] (stock concentration (mM, diluted 1:100): 10)
7. C[C@]12CCC(=O)C=C1CC[C@@H]1[C@@H]2CC[C@@]2(C)[C@H]1CC[C@]2(O)C(=O)CO [Cortodoxone] (stock concentration (mM, diluted 1:100): 10)
8. CC(=O)[C@@]1(O)CC[C@H]2[C@@H]3C[C@H](C)C4=CC(=O)CC[C@]4(C)[C@H]3CC[C@@]21C [Medroxyprogesterone] (stock concentration (mM, diluted 1:100): 10)

1. 0.8
2. 2.69
3. 0.74
4. -1.03
5. 8.67
6. 6.44
7. 5
8. -0.44
